The values you see were collected from ChEMBL document CHEMBL1201862.

# Tested on: SK-OV-3
# Test method notes: NCI tumour cell line growth inhibition, 48 h
Calls of active or inactive are those of the source. Rule as the data show it: active = GI50 up to about 1.1 µM and inactive = higher.
Can you answer with just one of these options? active, inactive

Recorded call for CCOC(=O)C(=O)Nc1ccc(C)cc1C ?
inactive

Try this molecule next: O=C1CCC2(c3ccccc3)Nc3ncccc3N12 (stereo unspecified)
inactive

Ok, now C/C(=N\Nc1nnc(S)n1N)c1c(O)cc(C)oc1=O
inactive

Query OCCOc1ccc(-c2cc(-c3ccccn3)nc(-c3ccccn3)c2)cc1 next
active

Record: COC(=O)N/N=C(\C)c1sc(-c2nc(C)c(/C(C)=N/NC(=O)OC)s2)nc1C
inactive

Also CC1OC(OC2C[C@](O)(C(=O)CBr)Cc3c(O)c4c(c(O)c32)C(=O)c2ccccc2C4=O)C(F)C(O)C1O (stereo partly specified) ?
inactive

Also, CC1(C)OC[C@@H](O)[C@H](C#N)CO1 please.
inactive

What about COC(=O)C1(C(=O)OC)N=C(C)OC1c1ccoc1 (stereo unspecified) ?
inactive

What about CC(O)(c1ccccc1)c1nccc2ccccc12 (stereo unspecified) ?
inactive

Input CCOC(=O)CNC(=O)CNC(=O)CNC(=O)CNNc1c(OCc2ccccc2)c(=O)c1=O
inactive

Another molecule to look at: CCOC(=O)/C=C/[C@@H](CC)O[Si](C(C)C)(C(C)C)C(C)C
inactive

###

# Tested on: CCRF-CEM
# Test method notes: NCI tumour cell line growth inhibition, 48 h
Active and inactive are the calls of the source. No stated cut-off is given here; in the data, active = GI50 up to about 1.1 µM and inactive = higher.
Thanks in advance; please answer with one of these: 1 (yes) for active, 0 (no) for inactive

For Cc1cccc2c1C(=O)C(C1OC(=O)c3ccccc31)C2 (centres undefined) , what call appears in the results of this test?
0 (no)

Next compound up: CCCC(=O)OCC1OC2OC(C)(C)OC2C2OC(C)(C)OC12 (centres undefined)
0 (no)

Now try CCCN(CCC)C(=O)C(=O)c1c(N)[nH]n(-c2ccccc2)c1=O .
0 (no)

Now consider CC1(C)CC(=O)c2c(nc3c(ccc4ccccc43)c2-c2ccc(NC(=O)CCC(=O)Nc3ccc(-c4c5c(nc6c4ccc4ccccc46)CC(C)(C)CC5=O)cc3)cc2)C1 and answer again.
0 (no)

Proceed to Nc1nc(NNc2ccc(Cl)c(Cl)c2)cc(=O)[nH]1
0 (no)

How about this compound: CCOc1ccc(N/C(=C(/C(Cl)=C(/Cl)NC(C)(C)C)[N+](=O)[O-])n2nnc3ccccc32)cc1
0 (no)

// query: C=C1NC(=O)C(CC(C(=O)C(=O)Nc2c(C)cccc2C(C)(C)C)C(=O)c2ccc3ccccc3c2)C(=O)N1 (centres undefined)
0 (no)

Follow-up entry: CCCc1c(O)nc(Nc2nc3ccccc3[nH]2)[nH]c1=O
0 (no)

Another compound to look at: COC(=O)C1(C(=O)OC)N=C(C)OC1c1ccoc1 (centres undefined)
0 (no)

Same read-out for O=C(N/N=C1/C(=O)c2c3ccccc3cc3cccc1c23)c1ccccc1 ?
0 (no)

Lookup N#Cc1cc([N+](=O)[O-])ccc1NC(=O)C(=O)C(C(=O)c1ccc2ccccc2c1)C1OCc2ccccc21 (centres undefined)
0 (no)

Next compound: Cc1ccc(NC(=O)CC(=O)n2nc(C)c(/N=N/c3ccc(S(=O)(=O)CCOS(=O)(=O)O)cc3)c2C)cc1
0 (no)

Cc1sc2c(c1C)C(=O)c1cccn1-2 , same question.
0 (no)

Similarly, CC1=NN2C(c3ccc([N+](=O)[O-])cc3)=CSC2=NC(C)(C)C1 ?
0 (no)

Please give the result for CC(=O)O[C@H]1CC[C@@]2(C)C(=CC[C@@H]3[C@@H]2CC[C@]2(C)C(=N/O)/C(=C/c4ccc([N+](=O)[O-])cc4)C[C@@H]32)C1 too.
0 (no)

Item: O=c1c2ccc3cccc4c(=O)cc(c5ccccc15)-c2c34
0 (no)

What about C[C@@H](CC(O)C1OC1(C)C)[C@@H]1CC[C@]2(C)C3=CCC4C(C)(C)C(O)CC[C@]4(C)C3CCC12C (some centres undefined) ?
0 (no)

Would you mind doing CN(C)CCC(/C=C/c1ccccc1)=N\Nc1ccccc1 as well?
1 (yes)

Would you mind doing CC(=O)Oc1ccccc1 as well?
0 (no)

###

# System: CCRF-CEM
# Test method notes: NCI tumour cell line growth inhibition, 48 h
Calls of active or inactive are those of the source. Rule as the data show it: active = GI50 up to about 1.1 µM and inactive = higher.
# output must be one of label 1 (active), label 0 (inactive)

// param item: O=C1O[C@H]2[C@@H]3OC(=O)c4cc(O)c(O)c(O)c4-c4c(cc(O)c(O)c4O)C(=O)OC[C@H]2O[C@@H](OC(=O)c2cc(O)c(O)c(O)c2)[C@@H]3OC(=O)c2cc(O)c(O)c3c2[C@@H]2C1=CC(=O)C(O)(O)C2(O)O3 (some centres not stated) ; yields the recorded call
label 0

Also NNC1=NC(=O)NC(=O)C1 , if possible.
label 0

Also check COC1=CC(=O)c2nc3ccccc3c3ccnc1c23
label 0

Same thing, different compound: CCO/C=C(\C(=O)OC)S(=O)(=O)c1ccc(C)cc1
label 0

Request: CCOC(=O)C(=O)/C(=C/N1C(=O)CC(=O)NC1=S)C(=O)OCC
label 0

Next record, please: C[Si](C)(C)[C@@]1([Se]c2ccccc2)CC[C@@H]1C(=O)c1ccccc1
label 0

Also need CN(C)c1cccc(OC(=O)NCCCl)c1 , thanks.
label 0

What about this compound? CC(C)(C)c1ccc(S(=O)(=O)N2C(c3cccc(C4CC[C@@H](C(=O)O)N4S(=O)(=O)c4ccc(C(C)(C)C)cc4)c3)CC[C@H]2C(=O)O)cc1 (some centres not stated)
label 0

Let us now turn to C=CCOC(=O)CCCCCCCCCCCCCCCOC(=O)C1=C(CCC[C@@H](C)O[Si](C)(C)C(C)(C)C)NC(=O)N2[C@H](CC3(CC/C=C\[C@H](CC)O[Si](C(C)C)(C(C)C)C(C)C)OCCO3)CC[C@H]12
label 0

# repeat for O=C(CCN1CCOCC1)C(=Cc1ccccc1)C(=O)CCN1CCOCC1
label 1

O=C(c1ccccc1)c1nc2ccc(Cl)cc2cc1C(Br)Br , same question.
label 1

Same question, COc1ccc(OC2OC(CO)C(OCc3ccccc3)C(OCc3ccccc3)C2OCc2ccccc2)cc1 (configuration not stated) this time
label 0

Next compound up: CC1(C)CC[C@]2(C(=O)O)CC[C@]3(C)C(=CC[C@@H]4[C@@]5(C)CC[C@H](OC6OC(CO)C(O)C(O)C6OC6OC(CO)C(O)C(O)C6O)C(C)(C)[C@@H]5CC[C@]43C)[C@@H]2C1 (some centres not stated)
label 0

How about this compound: CC1=C(N2CC2)C(=O)C(CO)=C(N2CC2)C1=O
label 1

Then what about the compound O=C(O)c1cc2c(ncc3c(=O)n(-c4ccccc4)[nH]c32)s1 ?
label 0

Could you do the same for Nc1c(C(=O)c2ccccc2)[nH]c(NCc2ccccc2)c1C(=S)Nc1ccccc1 , please?
label 0

// same read-out, input: COC(=O)[C@](NC(=O)OCc1ccccc1)([C@@H](C)Sc1ccc(C)cc1)C(F)(F)F
label 0

###

# System: TK-10
# Test method notes: NCI tumour cell line growth inhibition, 48 h
Active and inactive are the calls of the source. No stated cut-off is given here; in the data, active = GI50 up to about 1.1 µM and inactive = higher.
Assay readout: GI50

GET /values?readout=GI50&system=TK-10&item= COC(=O)C(=O)CC(=O)CCn1[nH]c(=O)c(Cl)c(Cl)c1=O
> 100 µM (inactive)

Item: Cc1ccc2c(c1)-c1c3c(nn1-c1ccccc1)-c1ccccc1SC3O2 (stereo unspecified)
> 100 µM (inactive)

Moving on to CCCC(=O)OCC1OC2OC(C)(C)OC2C2OC(C)(C)OC12 (stereo unspecified)
23.6 µM (inactive)

Follow-up item: NC(=O)c1ncn(CCN2CCN(C(=O)NCCCCCCNC(=O)N3CCN(CCn4cnc(C(N)=O)c4N)CC3)CC2)c1N
> 100 µM (inactive)

CN1CCN(CCCCN2c3ccccc3Sc3cc(N=[N+]=[N-])ccc32)CC1 , same question.
1.91 µM (inactive)

Now consider COC(=O)Cc1c(C2C(CC(=O)OC)c3ccccc3N2C2OC(CO)C(O)C(O)C2O)[nH]c2ccccc12 (stereo unspecified) .
> 100 µM (inactive)

How about O=C1c2cc(-c3ccccc3)cnc2S(=O)(=O)N1c1ccc(Br)cc1 ?
> 100 µM (inactive)

Cool, now CC(=O)OCC1OC(OC2CC3C(C)(C)C(=O)CC[C@]3(C)C3CC[C@]45C[C@]4(CCC5[C@@H](C)CC(O)C(O)C(C)(C)O)[C@]23C)C(O)C(O)C1O (stereo partly specified)
14.6 µM (inactive)

Next compound: COc1ccc2c3c1OC1C34CCN(C)C(C2)C4=CC(I)C1(OC)OC (stereo unspecified)
14.7 µM (inactive)

# iterate: [N-]=[N+]=NCC(=O)c1cnc(O)nc1O
> 100 µM (inactive)

Same thing, different compound: CC1=C(C(=O)Nc2ccccc2)C(c2ccccc2Cl)C(C(=O)Nc2ccccc2)=C(C)N1
38.7 µM (inactive)

// next record CC(SC(=S)N1CCOCC1)C(=O)Nc1nnc(-c2ccccc2)o1 (stereo unspecified)
> 100 µM (inactive)

Follow-up item: COc1ccc(N2C(=O)C3c4[nH]c5ccc([N+](=O)[O-])cc5c4C4CCC(C(C)(C)C)CC4C3C2=O)cc1 (stereo unspecified)
25.2 µM (inactive)

Now the same for C=C1CCC2C(C)(CO)C(O)CCC2(C)C1CC(O)/C(=C/CO)C(=O)O (stereo unspecified)
> 100 µM (inactive)

Entry Cc1ccc2c(c1)SC1=Nc3sc4cc(C)ccc4[n+]3CN12 please
14.9 µM (inactive)

# repeat for N#CC1(Cc2ccc(N)cc2)c2ccccc2C=CN1C(=O)c1ccccc1 (stereo unspecified)
44.4 µM (inactive)

Also need Cc1nc(N)c(-c2ccccc2)s1 , thanks.
> 100 µM (inactive)

Another compound to check: COc1cc(O)c2c(=O)c(OC)c(-c3ccc(OC)c(O)c3)oc2c1 [AYANIN]
17.6 µM (inactive)

Do the same for O=C(/C=C/c1ccccc1F)c1ccc([N+](=O)[O-])cc1 please
23.9 µM (inactive)

Ok, now CCNCCCCNCCCCNCCCCNCCCCNCC
29.7 µM (inactive)

Also check COc1ccc(C(OCC2OC(n3ccc(Oc4c(F)c(F)c(F)c(F)c4F)nc3=O)CC2OP(OCCC#N)N(C(C)C)C(C)C)(c2ccccc2)c2ccc(OC)cc2)cc1 (stereo unspecified)
> 100 µM (inactive)

Item: CC(C)(C)c1ccc(S(=O)(=O)N2C(c3cccc(C4CC[C@@H](C(=O)O)N4S(=O)(=O)c4ccc(C(C)(C)C)cc4)c3)CC[C@H]2C(=O)O)cc1 (stereo partly specified)
65.5 µM (inactive)

Same again, this time with CN(C)CC1CCC/C1=N/OC(=O)c1ccccc1 (stereo unspecified)
> 100 µM (inactive)

# repeat for CC(=O)Oc1cc(OC(C)=O)c2cc3c(cc2c1OC(C)=O)C(=O)C1(CCCC1)C3=O
17.2 µM (inactive)

Continue with CCOC(=O)c1cnc2oc3ccc(O)cc3c2c1C
57.4 µM (inactive)

Now consider O=C(C#CP(=O)(O)c1ccccc1)c1ccccc1 and answer again.
> 100 µM (inactive)

Now consider C=C(CCOC)CCC1CCCCC(=C)[C@H]1OC(C)=O (stereo partly specified) and answer again.
> 100 µM (inactive)

Then what about the compound CCC(=O)/C(=C\I)c1ccccc1 ?
15 µM (inactive)

Now give it for O=C1NN(Cc2ccccc2)C(=O)N2CCC[C@@H]12 too.
> 100 µM (inactive)

Next up: O=C([O-])Cc1ccccc1.[Na+] [SODIUM PHENYLACETATE]
1130 µM (inactive)

Quick one: CN(C)/C=N/c1nc2c(ncn2C2OC(CO)C(O)C2O)c(=O)[nH]1 (stereo unspecified)
> 100 µM (inactive)

Cool, now CCOC(=O)/C(C(=O)Nc1cccc(C(F)(F)F)c1)=C(/N)N1CCOCC1
> 100 µM (inactive)

Can you handle COC(=O)C([C@H]1CC[C@H](OCc2ccccc2)[C@@]1(O)COCc1ccccc1)C(C)(O)CCc1ccccc1 (stereo partly specified) next?
17.1 µM (inactive)

Ok, now O=c1c2ccc3cccc4c(=O)cc(c5ccccc15)-c2c34
> 100 µM (inactive)

Do the same for CCCc1c(O)nc(Nc2nc3ccccc3[nH]2)[nH]c1=O please
> 100 µM (inactive)

Let us now turn to C[Si](C)(C)[C@@]1([Se]c2ccccc2)CC[C@@H]1C(=O)c1ccccc1
> 100 µM (inactive)

Continue with CCOC(=O)CNC(=O)CNC(=O)CNC(=O)CNNc1c(OCc2ccccc2)c(=O)c1=O
> 100 µM (inactive)

Follow-up entry: NC(=O)NC(=O)c1cccc(NC(=O)CCl)c1
1.35 µM (inactive)

Same thing, different compound: O=C(N/N=C1/C(=O)c2c3ccccc3cc3cccc1c23)c1ccccc1
22.1 µM (inactive)

What about COc1ccc([C@@]2(O)c3c(ccc(O)c3OC)[C@H]2OC)c(OC)c1 ?
27.1 µM (inactive)

Now try ON1CCc2c([nH]c3ccccc23)C1c1ccc(Cl)cc1 (stereo unspecified) .
43.9 µM (inactive)
